system: GH3-TRE-Luc cell line; conditions: read-out: AC50 (uM) modified / 1000; Tox21_110001=Tox21_302811; viability, 1 nM T3 present, 24 h
MEASUREMENT NAME: CC50 (µM)

1) Nc1ccc([N+](=O)[O-])cc1N
26.4

---

assay: in vitro; conditions: rat, gh3-tre-luc cells, AC50 (uM) modified / 1000
Where a name gives a salt, the structure may show the parent alone.
CC50 at 24 h reference
MEASUREMENT NAME: CC50 at 24 h

1. CCCCCCCCCCCCCCCC(=O)NCCO [Palmitoylethanolamide]
> 50 µM
2. NCCCN(CCO)CCO [2,2'-[(3-Aminopropyl)imino]diethanol]
> 90 µM
3. CC(C)(Oc1ccc(Cl)cc1)C(=O)O [Clofibric acid]
> 50 µM
4. Clc1ccccn1 [2-Chloropyridine]
> 90 µM
5. C=C(C)C(=O)OC [Methyl methacrylate]
> 90 µM
6. OCC1CO1 (centres unmarked) [Glycidol]
> 90 µM
7. CC(C)=CC(=O)O [3,3-Dimethylacrylic acid]
> 90 µM
8. CO[Si](CCCn1c(=O)n(CCC[Si](OC)(OC)OC)c(=O)n(CCC[Si](OC)(OC)OC)c1=O)(OC)OC
> 70 µM
9. O=C(Nc1ccc(F)cc1F)c1cccnc1Oc1cccc(C(F)(F)F)c1 [Diflufenican]
> 100 µM
10. CCC(=O)OCC(=O)[C@@]1(OC(=O)CC)[C@@H](C)C[C@H]2[C@@H]3CCC4=CC(=O)C=C[C@]4(C)[C@@]3(F)[C@@H](O)C[C@@]21C [Betamethasone dipropionate]
> 50 µM
11. O=[N+]([O-])c1cc(C(F)(F)F)c(Cl)c([N+](=O)[O-])c1Nc1ncc(C(F)(F)F)cc1Cl [Fluazinam]
4.25 µM
12. C=CCON=C(CCC)C1C(=O)CC(C)(C)C(C(=O)OC)C1=O (centres unmarked) [Alloxydim-sodium]
> 90 µM
13. CC[C@@]1(O)C(=O)OCc2c1cc1n(c2=O)Cc2cc3c([N+](=O)[O-])cccc3nc2-1 [Rubitecan]
1.34 µM
14. CNC1(c2ccccc2Cl)CCCCC1=O (centres unmarked) [Ketamine]
> 50 µM
15. Cc1cc2c3c(c1)C(c1ccccc1)=N[C@@H](NC(=O)c1ccncc1)C(=O)N3CC2 [CI-1018]
> 90 µM
16. CCC(=O)c1ccc2c(c1)N(CCCN(C)C)c1ccccc1S2 [Propionylpromazine hydrochloride]
6.21 µM
17. O=C1CCCc2ccccc21 [1,2,3,4-Tetrahydronaphthalen-1-one]
> 90 µM
18. C/C(=N\Cc1ccccc1)c1ccccc1O [Oletimol]
> 50 µM
19. CC[C@H](C)[C@H]1O[C@]2(CC[C@@H]1C)C[C@@H]1C[C@@H](C/C=C(\C)[C@@H](O[C@H]3C[C@H](OC)[C@@H](O[C@H]4C[C@H](OC)[C@@H](O)[C@H](C)O4)[C@H](C)O3)[C@@H](C)/C=C/C=C3\CO[C@@H]4[C@H](O)C(C)=C[C@@H](C(=O)O1)[C@]34O)O2 [Ivermectin B1a]
2.85 µM
20. Cc1ncc(CO)c(CN)c1O [Pyridoxamine dihydrochloride]
> 50 µM
21. c1cnccn1 [Pyrazine]
> 90 µM
22. CCNc1nc(NC(C)C)nc(SC)n1 [Ametryn]
> 90 µM
23. Nc1ccc2cc3ccccc3cc2c1 [2-Aminoanthracene]
> 90 µM
24. COCCCOCCCOC [Dipropylene glycol dimethyl ether]
> 90 µM
25. CC(N)C(=O)OC(C)(C)Cc1ccc(Cl)cc1 (centres unmarked) [Alaproclate]
25.5 µM
26. CNC(=O)Oc1ccc2c(c1)[C@]1(C)CCN(C)[C@@H]1N2C [Physostigmine]
> 90 µM
27. C=C1CC[C@H](O)C/C1=C/C=C1\CCC[C@]2(C)[C@@H]([C@H](C)CCCC(C)(C)O)CC[C@@H]12 [Calcifediol]
11.5 µM
28. O=C(O)c1ccc(C(=O)O)cc1 [Terephthalic acid]
> 90 µM
29. Cc1ccc(C(=O)c2cc(O)c(O)c([N+](=O)[O-])c2)cc1 [Tolcapone]
72.4 µM
30. Nc1ccc(O)c([N+](=O)[O-])c1 [4-Amino-2-nitrophenol]
> 90 µM
31. CCC(=O)O[C@H]1[C@H](O[C@@H]2[C@@H](C)[C@H](O[C@H]3C[C@@](C)(OC)[C@@H](O)[C@H](C)O3)[C@@H](C)C(=O)O[C@H](CC)[C@@](C)(O)[C@H](O)[C@@H](C)C(=O)[C@H](C)C[C@@]2(C)O)O[C@H](C)C[C@@H]1N(C)C [Erythromycin propionate]
13.1 µM
32. CC1=CC[C@@H](C(C)(C)O)CC1 [alpha-Terpineol]
> 90 µM
33. COc1ccc(C(=O)c2ccc(O)cc2)c(OC)c1
> 90 µM
34. CC(=O)CCC=C(C)C [6-Methyl-5-hepten-2-one]
> 90 µM
35. CC(C)CC(C)(C)C [2,2,4-Trimethylpentane]
> 100 µM

---

assay: in vitro; conditions: rat, gh3-tre-luc cells, AC50 (uM) modified / 1000
CC50 at 24 h reference
MEASUREMENT NAME: CC50 at 24 h

1. CCCCCOC(=O)CCCC [Pentyl valerate]
> 90 µM
2. O=C(O)C(Cl)Cl
> 90 µM
3. CC(C)=CCC/C(C)=C/C=C/C(C)=C/C=C/C(C)=C/C=C/C=C(C)/C=C/C=C(C)/C=C/C=C(\C)CCC=C(C)C
> 50 µM
4. C#C[C@]1(O)CC[C@H]2[C@@H]3CCC4=CC(=O)CC[C@@H]4[C@H]3CC[C@@]21CC
> 90 µM
5. Oc1cc2ccccc2c2ccccc12
6.81 µM

---

assay: in vitro; settings: rat, gh3-tre-luc cells, AC50 (uM) modified / 1000, Tox21_110001=Tox21_201462; viability, 1 nM T3 present, 24 h
MEASUREMENT NAME: CC50 at 24 h

1. O=[N+]([O-])c1ccc(O)c([N+](=O)[O-])c1 [2,4-Dinitrophenol]
> 90 µM

---

assay: in vitro; conditions: rat, gh3-tre-luc cells, AC50 (uM) modified / 1000, Tox21_110001=Tox21_202456; viability, 1 nM T3 present, 24 h
MEASUREMENT NAME: CC50 at 24 h (µM)

1) CC(C)(c1ccccc1)c1ccc(O)c(C(C)(C)c2ccccc2)c1
13.3

---

experiment: in vitro; settings: rat, gh3-tre-luc cells, AC50 (uM) modified / 1000
Structures can show the parent of a compound that is named as a salt.
MEASUREMENT NAME: CC50 at 24 h

1) FC(F)C(F)(F)OCC(Cn1cncn1)c1ccc(Cl)cc1Cl (centres unmarked)
> 90 µM
2) CCOC(=O)COc1ccc2c(C)c(CCN(CC)CC)c(=O)oc2c1 [Chromonar hydrochloride]
> 50 µM
3) C=C(C)C(=O)OCCNC(C)(C)C
> 90 µM
4) CCCCCCn1cc[n+](C)c1
> 90 µM
5) C=CCN1C(=O)C(CC(C)C)NC1=S (centres unmarked)
> 50 µM
6) O=c1[nH]c2ccccc2o1
> 90 µM
7) CC(C)(C)c1ccc(C=O)cc1
> 90 µM
8) CCCN(CC)CC1COC2(CCC(C(C)(C)C)CC2)O1 (centres unmarked)
> 90 µM
9) O=C(O)CCCCCC(=O)O
> 90 µM
10) NCC(=O)CCC(=O)O [Aminolevulinic acid hydrochloride]
> 50 µM
11) Cc1[nH]c(=O)c(C#N)cc1-c1ccncc1
> 90 µM

---

test: in vitro; conditions: rat, gh3-tre-luc cells, AC50 (uM) modified / 1000
Counter-ions that a name gives are not always drawn.
MEASUREMENT NAME: CC50 at 24 h

1) O=C(O)c1cc(C(=O)O)c(C(=O)O)cc1C(=O)O
> 90 µM
2) COc1ccc(OC)c(Cl)c1
> 90 µM
3) O=C1NCC2(CCN(CCc3ccccc3)CC2)O1 [Fenspiride hydrochloride]
> 50 µM
4) OCCNCc1ccccc1
> 90 µM
5) O=C(C(=O)c1ccco1)c1ccco1
> 90 µM
6) N[C@@H]1C[C@H]1c1ccccc1 [Tranylcypromine hydrochloride]
> 50 µM
7) CC(=O)OC(C)(C)C [tert-Butyl acetate]
> 90 µM
8) Cc1ccc(C(C)NC(=O)[C@@H](NC(=O)OC(C)C)C(C)C)cc1 (stereo partly shown)
> 90 µM
9) C1=CC2C3C=CC(C3)C2C1 (stereo not shown)
> 90 µM
10) CCCCCCCCC(=O)O
> 90 µM
11) CC(CO)c1ccccc1 (stereo not shown)
> 90 µM
12) COc1cc(OC)nc(Sc2cccc(Cl)c2C(=O)O)n1 [Pyrithiobac-sodium]
> 90 µM
13) CC(CC(C)C)=NO [N-Hydroxy-4-methylpentan-2-imine]
> 90 µM
14) COc1c2occc2cc2ccc(=O)oc12
> 50 µM
15) COc1cc(S(=O)(=O)O)c(C)cc1N=Nc1c(O)ccc2cc(S(=O)(=O)O)ccc12
37.7 µM
16) NCC(=O)O
> 50 µM
17) Cc1ccc([N+](=O)[O-])c(N)c1
> 90 µM
18) COc1cc(C)nc(-n2nc(C)cc2OC)n1 [Epirizole]
> 20 µM
19) c1ccc2sc(SN(C3CCCCC3)C3CCCCC3)nc2c1
> 100 µM
20) COC1=CC(=O)O[C@@H](CCc2ccccc2)C1 [Dihydrokavain]
> 100 µM
21) Fc1ccccc1
> 90 µM
22) CC1(c2ccccc2)OC(C(=O)O)=CC1=O (stereo not shown)
> 50 µM

Attribution: paper PMC6792352
